pIC50: −log10 of the molar value.
Observation Type: pIC50

## Task Form entry - test system: UPAR (Homo sapiens); read-out: pIC50; compound: [Cl][Fe]([Cl])[Cl] [FeCl3, Iron(III) chloride]
## Result < 5.00

## Task Any idea what pIC50 came out for [Cl][Mn][Cl] [MnCl2, Manganese(II) chloride] on UPAR (Homo sapiens)?
## Result < 5.00

## Task // lookup pIC50 | system=UPAR (Homo sapiens) | key= [Cl][Pd][Cl] [PdCl2, Palladium(II) chloride]
## Result > 6.00

## Task Return pIC50 measured with UPAR (Homo sapiens) given this compound: [Cl-].[Cl-].[Zn+2] [ZnCl2, Zinc(II) chloride]
## Result > 6.00

## Task What measured pIC50 is associated with [Cl][Au]([Cl])[Cl] [AuCl3, Gold(III) chloride] on UPAR (Homo sapiens)?
## Result 5.00 to 6.00

====

biological target: LSD1 (Homo sapiens); experiment: LSD1 DELFIA; format: biochemical; settings: read-out: Target #1 IC50
Provide the reported IC50 of each item.

## Task Fill in: IC50 of [Cl][Sn][Cl] [SnCl2, Tin(II) chloride] is ___
## Result > 10 µM

## Task GET /values?readout=IC50&item= CC(=O)[O-].[Ag+] [Ag (CH 3COO), Silver acetate]
## Result 1 to 10 µM

## Task What does the record list as IC50 for [Cl][Mn][Cl] [MnCl2, Manganese(II) chloride] ?
## Result > 10 µM

## Task Give the measured IC50 of [Cl][Fe][Cl] [FeCl2, Iron(II) chloride] .
## Result > 10 µM

## Task Entry under review: [Cl][Fe]([Cl])[Cl] [FeCl3, Iron(III) chloride] . Reported IC50?
## Result > 10 µM

## Task Look up IC50 for this compound: [Cl][Ni][Cl] [NiCl2, Nickel(II) chloride]
## Result 1 to 10 µM

====

target: KRAS GTP (Homo sapiens, UniProt P01116, G12D); assay: KRAS AlphaScreen, Target #2
Sequence (P01116 1-169 isoform P01116-2 G12D): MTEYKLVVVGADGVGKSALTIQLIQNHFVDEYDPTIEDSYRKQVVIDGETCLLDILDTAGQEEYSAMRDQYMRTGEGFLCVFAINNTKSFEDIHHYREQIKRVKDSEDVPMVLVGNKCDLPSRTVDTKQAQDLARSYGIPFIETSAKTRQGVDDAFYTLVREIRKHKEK
pIC50: −log10 of the molar value.
Observation Type: pIC50

## Task For [Cl-].[Cl-].[Co+2] [CoCl2, Cobalt(II) chloride] , what is its reported pIC50?
## Result < 5.00

## Task Consider the molecule shown here: [Cl-].[Cl-].[Mg+2] [MgCl2, Magnesium chloride] What is its recorded pIC50?
## Result 5.00 to 6.00

## Task // lookup pIC50 for [Cl][Au]([Cl])[Cl] [AuCl3, Gold(III) chloride]
## Result 5.00 to 6.00

====

For each entry below, report its IC50 value.
target: KRAS GTP (Homo sapiens, UniProt P01116, G12D); experiment: KRAS AlphaScreen, Target #2

## Task What does the data say about its IC50? Entry: [Cl][Pd][Cl] [PdCl2, Palladium(II) chloride]
## Result < 1 µM

## Task Any idea what IC50 was measured for [Cl][Mn][Cl] [MnCl2, Manganese(II) chloride] ?
## Result > 10 µM

## Task Dear colleague, I am looking for the recorded IC50 of the following compound: [Cl][Fe][Cl] [FeCl2, Iron(II) chloride]
## Result 1 to 10 µM

## Task Which measured IC50 value corresponds to [Cl][Sn][Cl] [SnCl2, Tin(II) chloride] ?
## Result 1 to 10 µM

## Task Could you tell me which IC50 is on file for [Cl][Ni][Cl] [NiCl2, Nickel(II) chloride] ?
## Result > 10 µM

## Task Given the compound [Cl][Cu][Cl] [CuCl2, Copper(II) chloride] , what is its reported IC50?
## Result > 10 µM

## Task If you can, please state the reported IC50 value of [Cl][Fe]([Cl])[Cl] [FeCl3, Iron(III) chloride] .
## Result 1 to 10 µM

## Task Quick one: IC50 of CC(=O)[O-].[Ag+] [Ag (CH 3COO), Silver acetate] ?
## Result > 10 µM

## Task Form field: reported IC50 of [Cl-].[Cl-].[Zn+2] [ZnCl2, Zinc(II) chloride]
## Result > 10 µM

## Task Fill in: IC50 of O=[N+]([O-])[O-].O=[N+]([O-])[O-].O=[N+]([O-])[O-].[Al+3] [Al(NO3)3, Aluminum nitrate] is ___
## Result > 10 µM

====

Target: beta-Catenin (Homo sapiens, UniProt P35222)
Sequence (P35222 1-781): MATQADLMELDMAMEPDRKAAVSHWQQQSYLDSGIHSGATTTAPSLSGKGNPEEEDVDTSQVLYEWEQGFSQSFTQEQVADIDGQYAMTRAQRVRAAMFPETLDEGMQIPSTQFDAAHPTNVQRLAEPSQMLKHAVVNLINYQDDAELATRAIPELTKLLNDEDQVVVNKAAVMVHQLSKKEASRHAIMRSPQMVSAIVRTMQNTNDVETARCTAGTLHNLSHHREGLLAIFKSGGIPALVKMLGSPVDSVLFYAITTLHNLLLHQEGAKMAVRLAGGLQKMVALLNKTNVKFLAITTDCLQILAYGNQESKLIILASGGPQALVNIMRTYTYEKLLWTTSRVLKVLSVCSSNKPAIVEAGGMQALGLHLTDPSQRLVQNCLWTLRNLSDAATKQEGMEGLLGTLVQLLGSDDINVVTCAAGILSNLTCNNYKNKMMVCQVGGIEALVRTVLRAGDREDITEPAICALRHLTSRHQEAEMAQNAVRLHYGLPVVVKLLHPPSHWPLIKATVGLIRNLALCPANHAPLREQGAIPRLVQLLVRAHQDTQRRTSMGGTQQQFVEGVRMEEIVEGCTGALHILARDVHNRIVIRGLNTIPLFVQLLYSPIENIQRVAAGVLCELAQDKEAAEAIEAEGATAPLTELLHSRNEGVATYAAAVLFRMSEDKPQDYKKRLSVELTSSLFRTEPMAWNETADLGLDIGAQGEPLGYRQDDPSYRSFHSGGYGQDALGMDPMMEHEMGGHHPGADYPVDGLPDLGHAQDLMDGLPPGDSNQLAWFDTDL
For each entry below, report its IC50 value.

## Task Look at this compound and give its reported IC50. [Cl][Cu][Cl] [CuCl2, Copper(II) chloride]
## Result > 10 µM

## Task Param item = [Cl][Ni][Cl] [NiCl2, Nickel(II) chloride] ; retrieve measured IC50.
## Result > 10 µM

## Task Entry under review: [Cl][Au]([Cl])[Cl] [AuCl3, Gold(III) chloride] . Reported IC50?
## Result < 1 µM

====

Biological target: UniProt P08515
Test: Control assay (AlphaScreen Shortcut)
Type: biochemical
Conditions: Control assay IC50, Batch 2 (resynthesized)
Method: This assay was developed to identify compounds that interfere with the assay format using AlphaLISA Glutathione Acceptor and AlphaScreen Streptavidin Donor beads. The assay was performed as described above using biotinylated GST as bridging reagent instead of KRAS^G12D and CRAF mix.
Observation Type: pIC50
Keep in mind that pIC50 stands for -log10 of concentration in molar terms.

## Task So what does the record say about pIC50 for "O=C1NCCc2c1[nH]c1c(-c3ccoc3)cccc21" ?
## Result 4.16

====

molecular target: KRAS^G12D(GTP)::CRAF (Homo sapiens, UniProt P01116, G12D); construct: KRAS^G12D 1–169, N-terminal 6His-tag, C-terminal avi-tag (Xtal BioStructures, Inc.); 6His (N); purchased Xtal BioStructures, Inc. (KRAS); Viva Biotech Ltd. (CRAF); test: KRAS^G12D(GTP)::CRAF TR-FRET; assay type: biochemical; settings: Fluorescence; GST-CRAF^(51–131) and KRAS^G12D(1–169)-biotin
Sequence (P01116 1-169 isoform P01116-2 G12D): as the sequence (P01116 1-169 isoform P01116-2 G12D) above
Observation Type: pIC50
Quick note: pIC50 means taking -log10 of the concentration in moles per liter.

## Task Provide the documented pIC50 with KRAS^G12D(GTP)::CRAF (Homo sapiens, UniProt P01116, G12D) as the system for [Cl][Pd][Cl] [PdCl2, Palladium(II) chloride]
## Result 4.39

====

test system: off target; assay: FKBP51 AlphaScreen, Target #3; assay type: biochemical
pIC50: −log10 of the molar value.
Observation Type: pIC50

## Task Using the record for [Cl][Pd][Cl] [PdCl2, Palladium(II) chloride] , report its pIC50.
## Result < 5.00

## Task GET /values?readout=pIC50&item= [Cl][Ni][Cl] [NiCl2, Nickel(II) chloride]
## Result < 5.00

## Task Given the compound [Cl-].[Cl-].[Zn+2] [ZnCl2, Zinc(II) chloride] , what is its reported pIC50?
## Result < 5.00

## Task // pIC50 lookup, key: [Cl][Mn][Cl] [MnCl2, Manganese(II) chloride]
## Result < 5.00

## Task Reported pIC50, compound [Cl][Au]([Cl])[Cl] [AuCl3, Gold(III) chloride] : ____
## Result < 5.00

## Task Find the recorded pIC50 belonging to [Cl-].[Cl-].[Mg+2] [MgCl2, Magnesium chloride] and report it.
## Result < 5.00

## Task Given the entry [Cl][Fe][Cl] [FeCl2, Iron(II) chloride] , report its measured pIC50.
## Result < 5.00

## Task Which pIC50 value is on record for [Cl][Fe]([Cl])[Cl] [FeCl3, Iron(III) chloride] ?
## Result < 5.00

## Task What value of pIC50 has been recorded for this entry: [Cl][Cu][Cl] [CuCl2, Copper(II) chloride]
## Result < 5.00

## Task Which pIC50 reading was recorded for the compound O=[N+]([O-])[O-].O=[N+]([O-])[O-].O=[N+]([O-])[O-].[Al+3] [Al(NO3)3, Aluminum nitrate] ?
## Result < 5.00

## Task GET /values?readout=pIC50&item= CC(=O)[O-].[Ag+] [Ag (CH 3COO), Silver acetate]
## Result < 5.00

## Task Need pIC50 of [Cl-].[Cl-].[Co+2] [CoCl2, Cobalt(II) chloride] , thanks.
## Result < 5.00

## Task Look at this compound and give its reported pIC50. [Cl][Sn][Cl] [SnCl2, Tin(II) chloride]
## Result < 5.00
